meta.source: ChEMBL document CHEMBL5058577

system: U2OS; assay: Multiplex assay against U2OS; format: toxicity, cell-based; conditions: human, 12 h, 1 µM, compound concentration 1 uM, replicate 1
Observable: Population Membrane Permeable-Phenotype (%)
# unit: % | format: bare number

[
  {
    "Compound": "N#Cc1c(N)nc(SCc2csc(-c3ccc(Cl)cc3)n2)c(C#N)c1-c1ccc(OCCO)cc1 [CAPADENOSON]",
    "Measured": 14
  },
  {
    "Compound": "CSc1ccccc1N1CCN(CCCCCC(=O)NC2CCCc3ccccc32)CC1.Cl (centres undefined)",
    "Measured": 73
  },
  {
    "Compound": "O=C(NCC(=O)N1CC[C@H](N[C@H]2CC[C@@](O)(c3ccc(-c4ncccn4)cn3)CC2)C1)c1cccc(C(F)(F)F)c1 [PF-4136309]",
    "Measured": 6
  }
]

Attention now turns to another entry.
Returns the measured Population Membrane Permeable-Phenotype (%) for the input compound. Input: CCCn1c(=O)c2[nH]c(C3CCCC3)nc2n(CCC)c1=O
1

---

system: Fibroblast; assay: Multiplex assay against human fibroblast; assay type: toxicity, cell-based; conditions: 24 h, 10 µM, compound concentration 10 uM, replicate 2
# Population Apoptotic (%) values compiled below
# unit: % | format: bare number

[
  {
    "Compound": "CC1(COc2ccc3c(c2)ncn3-c2ccc3cccc(N4CCC(N)CC4)c3n2)COC1",
    "Unit Of Measurement": "%",
    "Measured": 34
  },
  {
    "Compound": "C[C@H](NC(=O)c1c(C(F)F)nn(C)c1Oc1cccc(C(F)(F)F)c1)c1ccc(C(=O)O)cc1",
    "Unit Of Measurement": "%",
    "Measured": 38
  },
  {
    "Compound": "CC(C)(C)c1ccc(S(=O)(=O)Nc2ccc(Cl)cc2C(=O)c2cc[n+]([O-])cc2)cc1",
    "Unit Of Measurement": "%",
    "Measured": 41
  }
]

Enter reported Population Apoptotic (%) observed with Fibroblast for CN(C)CCCc1cc(C(=O)Nc2ccc(-c3ccncc3)cc2)ccc1O.Cl.Cl
42

Enter reported Population Apoptotic (%) observed with Fibroblast for CSc1ccccc1N1CCN(CCCCCC(=O)NC2CCCc3ccccc32)CC1.Cl (centres undefined)
66

Enter reported Population Apoptotic (%) observed with Fibroblast for CCCC(CCC)C(=O)O
38

Enter reported Population Apoptotic (%) observed with Fibroblast for CN1CCN(c2nc3cc(C(F)(F)F)ccc3n3cccc23)CC1.O=C(O)/C=C\C(=O)O.O=C(O)/C=C\C(=O)O
63

Enter reported Population Apoptotic (%) observed with Fibroblast for O=C(NCCO)c1cccc(-c2cc(Nc3ccc(OC(F)(F)F)cc3)ncn2)c1
41

Enter reported Population Apoptotic (%) observed with Fibroblast for CN1CCN2c3ncccc3Cc3ccccc3C2C1 (centres undefined)
46

---

system: Fibroblast; test: Multiplex assay against human fibroblast; assay type: toxicity, cell-based; settings: 24 h, 1 µM, compound concentration 1 uM, replicate 1
Observable: Population Membrane Permeable-Phenotype (%)
# unit: % | format: bare number

Worked examples follow.
[
  {
    "Molecule": "CN(C)c1ccnc2sc3c(=O)n(N4CCCCCC4)cnc3c12",
    "Unit Of Measurement": "%",
    "Measured": 0
  },
  {
    "Molecule": "COc1cc(NC(=O)CCN2CCC(OC(=O)Nc3ccccc3-c3ccccc3)CC2)c(Cl)cc1CNC[C@H](O)c1ccc(O)c2[nH]c(=O)ccc12",
    "Unit Of Measurement": "%",
    "Measured": 0
  },
  {
    "Molecule": "Cc1ccccc1C(=O)Nc1ccc(C(=O)N2CCCC(N(C)C)c3ccccc32)cc1.Cl (stereo not drawn)",
    "Unit Of Measurement": "%",
    "Measured": 0
  },
  {
    "Molecule": "C[C@@H]1C[C@H]2[C@@H]3CCC4=CC(=O)C=C[C@]4(C)[C@@]3(F)[C@@H](O)C[C@]2(C)[C@@]1(O)C(=O)CO",
    "Unit Of Measurement": "%",
    "Measured": 1
  }
]

Returns the measured Population Membrane Permeable-Phenotype (%) for the input molecule. Input: Cc1ccc(C(C)(O)c2nc3ccccc3s2)c(C)c1 (stereo not drawn)
2

Returns the measured Population Membrane Permeable-Phenotype (%) for the input molecule. Input: N#Cc1c(N)nc(SCc2csc(-c3ccc(Cl)cc3)n2)c(C#N)c1-c1ccc(OCCO)cc1
0

Returns the measured Population Membrane Permeable-Phenotype (%) for the input molecule. Input: CC(=O)NCCc1c(Cc2ccccc2)[nH]c2ccccc12
0

Returns the measured Population Membrane Permeable-Phenotype (%) for the input molecule. Input: Cl.Clc1ccc2nsnc2c1NC1=NCCN1 [TIZANIDINE HYDROCHLORIDE]
0
